target: Recombinant human BRD4 containing dual bromodomains (BRD4-BD12 (1-477)) (Homo sapiens); construct: Recombinant human BRD4 containing dual bromodomains (BRD4-BD12 (1-477)); test: BRD4 Alphascreen binding assay
pIC50: −log10 of the molar value.
VALUE TYPE: pIC50

# count of solved cases: 2
[
  {
    "COMPOUND": "CCOc1cccc(Cl)c1-n1cc(-c2ccccc2)c2ncc(-c3c(C)noc3C)cc21 [P-0224]",
    "VALUE TYPE": "pIC50",
    "OBSERVED VALUE": "5.10 to 6.00"
  },
  {
    "COMPOUND": "Cc1noc(C)c1-c1cnc2c(c1)c(-c1ccc(C(=O)O)cc1OC(F)(F)F)cn2CC1(C#N)CCC1 [P-0364]",
    "VALUE TYPE": "pIC50",
    "OBSERVED VALUE": "5.10 to 6.00"
  }
]

(Q) Name the reported pIC50 value associated with the compound Cc1noc(C)c1-c1cnc2c(c1)c(-c1ccc(C(=O)O)cc1OC1CC1)cn2[C@@H](C)c1ccccn1 [P-0170]
(A) 3.00 to 5.10

(Q) What value of pIC50 has been reported for the following compound? Cc1cc(C(=O)O)cc(OCC(F)F)c1-c1cn(C2CCOCC2)c2ncc(-c3c(C)noc3C)cc12 [P-0367]
(A) 5.10 to 6.00

* * *

biological target: Recombinant human CBP containing the bromodomain (CBP-BD (1043-1159)) (Homo sapiens); construct: Recombinant human CBP bromodomain (CBP-BD (1043-1159)); test: CBP Alphascreen binding assay; settings: read-out: CREBBP (CBP) IC50
Sequence (Q92793 1081-1197): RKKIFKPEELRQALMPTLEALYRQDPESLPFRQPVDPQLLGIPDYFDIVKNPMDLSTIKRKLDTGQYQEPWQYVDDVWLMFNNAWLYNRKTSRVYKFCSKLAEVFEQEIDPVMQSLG
Recorded IC50 values for a group of molecules are listed next.

[
  {
    "MOLECULE": "Cc1noc(C)c1-c1cnc2c(c1)c(-c1ccc(C(=O)O)cc1OC(F)(F)F)cn2-c1ccccn1",
    "VALUE TYPE": "IC50",
    "OBSERVED VALUE": "0.1 to 1000 nM"
  }
]

(Q) Please look up its IC50: `Cc1noc(C)c1-c1cnc2c(c1)c(-c1c(Cl)cc(C(=O)O)cc1OC1CC1)cn2C(C1CC1)C1CC1`
(A) 0.1 to 1000 nM

(Q) Which IC50 is reported for this molecule? `COc1ncccc1-n1cc(-c2ccc(C(=O)O)cc2OC(F)(F)F)c2cc(-c3c(C)noc3C)cnc21`
(A) 0.1 to 1000 nM

(Q) Which IC50 is listed for `Cc1cc(-c2c(C(F)(F)F)n([C@@H](C)c3ccccn3)c3cc(-c4c(C)noc4C)cnc23)ccc1C(=O)O` ?
(A) 1000 to 8000 nM

(Q) Reported IC50 for `CCOc1cc(C(=O)O)cc(OCC)c1-n1cc(-c2cncc(Cl)c2)c2ncc(-c3c(C)noc3C)cc21` : what is it?
(A) 0.1 to 1000 nM

(Q) Fill blank: measured IC50 of the molecule Cc1noc(C)c1-c1cnc2c(c1)c(-c1cccc(CC(=O)O)c1)cn2C(c1ccccn1)C1CCCC1 (centres unmarked) is ____.
(A) 0.1 to 1000 nM

(Q) # input molecule: `CCOc1cc(C(=O)O)cc(OCC)c1-n1cc(-c2ccc(OC)cc2F)c2ncc(-c3c(C)noc3C)cc21` ; wanted: its IC50
(A) 0.1 to 1000 nM

(Q) Data request, read-out IC50, for Cc1noc(C)c1-c1cnc2c(c1)c(-c1ccncc1)cn2C(c1ccccn1)C1CCCC1 (centres unmarked)
(A) 1000 to 8000 nM

* * *

biological target: Recombinant human EP300 containing the bromodomain (EP300-BD (1040-1161)) (Homo sapiens); construct: Recombinant human EP300 bromodomain (EP300-BD (1040-1161)); made in house; host or cells: E. coli BL21-CodonPlus (DE3), modified pET vector; experiment: EP300 Alphascreen binding assay
VALUE TYPE: IC50

Solved cases below.
[
  {
    "COMPOUND": "Cc1noc(C)c1-c1cnc2c(c1)c(-c1ccc(C(=O)O)cc1OCC1CC1)cn2[C@@H](C)c1ccccn1",
    "IC50": "0.1 to 1000 nM"
  },
  {
    "COMPOUND": "Cc1noc(C)c1-c1cnc2c(C(=O)c3ccccc3Cl)cn(-c3ccnc(C(=O)O)c3)c2c1",
    "IC50": "0.1 to 1000 nM"
  },
  {
    "COMPOUND": "Cc1noc(C)c1-c1cnc2c(C(O)(C3CC3)C3CC3)cn(-c3ccc(C(=O)O)cc3OC(F)(F)F)c2c1",
    "IC50": "0.1 to 1000 nM"
  },
  {
    "COMPOUND": "COc1ccncc1-n1cc(-c2ccc(C(=O)O)cc2OC(F)(F)F)c2cc(-c3c(C)noc3C)cnc21",
    "IC50": "0.1 to 1000 nM"
  }
]

(Q) Param item = `Cc1noc(C)c1-c1cnc2c(C(=O)c3cccc(OCc4ccccc4)c3)cn(-c3c(Cl)cc(C(=O)O)cc3Cl)c2c1` ; retrieve measured IC50.
(A) 0.1 to 1000 nM

(Q) Query: IC50; subject: `COc1cc(C(=O)O)cc(OC)c1-c1cn([C@@H](C)c2ccccn2)c2cc(-c3c(C)noc3C)cnc12`
(A) 1000 to 8000 nM

(Q) Field request: IC50 | item: `Cc1noc(C)c1-c1cnc2c(c1)c(-c1ccc(C(=O)O)cc1OCC(F)F)cn2[C@H]1CCOC1`
(A) 0.1 to 1000 nM

* * *

Each entry below carries its recorded pIC50.
Biological target: Recombinant human EP300 containing the bromodomain (EP300-BD (1040-1161)) (Homo sapiens)
Construct: Recombinant human EP300 bromodomain (EP300-BD (1040-1161))
Sequence (Q09472 1040-1161): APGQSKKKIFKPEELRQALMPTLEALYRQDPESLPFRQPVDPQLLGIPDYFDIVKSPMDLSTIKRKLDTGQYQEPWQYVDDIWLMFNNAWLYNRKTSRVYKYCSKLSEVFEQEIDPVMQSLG
Test: EP300 Alphascreen binding assay
pIC50: −log10 of the molar value.

Look over these answered cases.
[
  {
    "COMPOUND": "Cc1noc(C)c1-c1cnc2c(-c3cc(Cl)cc(C(=O)O)c3)c(C(F)(F)F)n([C@@H](C)c3ccccn3)c2c1 [P-0241]",
    "pIC50": "6.00 to 10.00"
  },
  {
    "COMPOUND": "Cc1noc(C)c1-c1cnc2c(c1)c(-c1ccc(C(=O)O)cc1OC(F)(F)F)cn2-c1ccc(C(N)=O)cc1 [P-0323]",
    "pIC50": "6.00 to 10.00"
  },
  {
    "COMPOUND": "Cc1noc(C)c1-c1cnc2c(c1)c(-c1cccc(C(=O)O)c1)cn2Cc1cccc(OC(F)(F)F)c1 [P-0059]",
    "pIC50": "6.00 to 10.00"
  },
  {
    "COMPOUND": "Cc1noc(C)c1-c1cnc2c(C(=O)C3CCC3)cn(-c3c(Cl)cc(C(=O)O)cc3Cl)c2c1 [P-0121]",
    "pIC50": "6.00 to 10.00"
  },
  {
    "COMPOUND": "Cc1noc(C)c1-c1cnc2c(CC3CC3)cn(-c3ccc(C(=O)O)cn3)c2c1 [P-0010]",
    "pIC50": "6.00 to 10.00"
  },
  {
    "COMPOUND": "Cc1noc(C)c1-c1cnc2c(c1)c(-c1ccc(C(=O)O)cc1OC(F)(F)F)cn2-c1ccccc1 [P-0188]",
    "pIC50": "6.00 to 10.00"
  }
]

(Q) Report pIC50 for Cc1noc(C)c1-c1cnc2c(-c3ccccc3C#N)cn(C(C)(c3ccccn3)c3ccccn3)c2c1 [P-0169] please.
(A) 6.00 to 10.00

(Q) Requested read-out: pIC50. Entry: Cc1noc(C)c1-c1cnc2c(c1)c(-c1ccc(C(=O)O)cc1OC(F)(F)F)cn2CC1(C#N)CCC1 [P-0364]
(A) 6.00 to 10.00

* * *

target: Recombinant human BRD4 containing dual bromodomains (BRD4-BD12 (1-477)) (Homo sapiens, UniProt O60885); construct: Recombinant human BRD4 containing dual bromodomains (BRD4-BD12 (1-477)); assay: BRD4 Alphascreen binding assay
VALUE TYPE: IC50

Illustrative cases are given below, each with its answer.
[
  {
    "COMPOUND": "Cc1noc(C)c1-c1cnc2c(c1)c(-c1ccnc(C(=O)O)c1)cn2CC1CC1 [P-0045]",
    "IC50": "0.0001 to 1 µM"
  },
  {
    "COMPOUND": "Cc1noc(C)c1-c1cnc2c(c1)c(-c1ccc(C(=O)O)cc1OC(F)(F)F)cn2CCN1CCOCC1 [P-0191]",
    "IC50": "8 to 1000 µM"
  },
  {
    "COMPOUND": "CCCn1nc(C(=O)O)c(NCC)c1-c1cn(-c2ccc(F)cc2F)c2ncc(-c3c(C)noc3C)cc12 [P-0304]",
    "IC50": "1 to 8 µM"
  }
]

Now for a further compound.
(Q) Give its IC50 value. Item: Cc1noc(C)c1-c1cnc2c(c1)c(-c1ccc(C(=O)O)cc1OCC(F)F)cn2C(C1CC1)C1CC1 [P-0338]
(A) 8 to 1000 µM
